Tested on: SF-539
Assay: NCI tumour cell line growth inhibition, 48 h
Activity calls are given as the source filed them. Rule as the data show it: active = GI50 up to about 1.1 µM and inactive = higher.
Hi there, use one of these labels in your reply, thanks! active, inactive

See these solved cases before continuing.
{"compound": "Cc1ccc(S(=O)(=O)Oc2nc3ccccc3nc2OS(=O)(=O)c2ccc(C)cc2)cc1", "class.name": "inactive"}
{"compound": "O=C(Cc1ccccc1)NN1C(=O)C(Cl)C1c1ccccc1Cl (centres undefined)", "class.name": "inactive"}
{"compound": "N=c1c2c(-c3ccccc3)c[nH]c2ncn1N", "class.name": "inactive"}
{"compound": "CC(=O)N1CCc2c([nH]c3ccc(Br)cc23)C1c1ccccc1 (centres undefined)", "class.name": "inactive"}

Would you mind telling me which call this test gave `[O-]c1c2cc(-[n+]3c(-c4ccccc4)cc(-c4ccccc4)cc3-c3ccccc3)cc1CO[C@@H](c1ccccc1)[C@H](c1ccccc1)OCc1cccc(n1)CO[C@@H](c1ccccc1)[C@H](c1ccccc1)OC2` ?
active

Would you mind telling me which call this test gave CCCC(=O)Nc1cc(/C=C/C(=O)N2CC(CCl)c3c2cc(OC(C)=O)c2[nH]cc(C)c32)n(C)c1 (centres undefined) ?
active

Would you mind telling me which call this test gave `COc1cc(/C=C(\C#N)C(=O)c2ccccc2)ccc1OCc1ccccc1` ?
inactive

Would you mind telling me which call this test gave `Cc1ccc2[nH]c3[nH]c(=O)[nH]c(=O)c3c2c1` ?
inactive

Would you mind telling me which call this test gave `CC(=O)N(C)CCc1c[nH]c2ccccc12` ?
inactive
